Target: T1, human CD123 (human, UniProt P26951 19-305, limits assumed)
T1 construct: Construct on the chip is not described; also called CD123 chip
T1 sequence (looked up): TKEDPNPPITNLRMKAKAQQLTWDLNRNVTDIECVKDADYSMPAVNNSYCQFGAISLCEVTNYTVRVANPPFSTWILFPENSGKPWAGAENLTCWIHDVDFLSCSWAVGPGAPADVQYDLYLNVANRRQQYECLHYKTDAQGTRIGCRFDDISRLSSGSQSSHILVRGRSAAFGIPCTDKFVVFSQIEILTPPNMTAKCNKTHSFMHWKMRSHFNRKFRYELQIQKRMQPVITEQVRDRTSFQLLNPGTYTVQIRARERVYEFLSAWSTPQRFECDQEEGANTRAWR
Assay: Biacore, Fab-His on CD123 (Example 3; the sheet names no assay)
READOUT_KIND: Ka (M⁻¹)
Numbers only, in M⁻¹.

13760 7G3_H0L0_Fab_His (Fab, V domains shown, Fab of the murine 7G3 variable regions; also called XENP13760) VH: EVQLQQSGPELVKPGASVKMSCKASGYTFTDYYMKWVKQSHGKSLEWIGDIIPSNGATFYNQKFKGKATLTVDRSSSTAYMHLNSLTSEDSAVYYCTRSHLLRASWFAYWGQGTLVTVSA VL: DFVMTQSPSSLTVTAGEKVTMSCKSSQSLLNSGNQKNYLTWYLQKPGQPPKLLIYWASTRESGVPDRFTGSGSGTDFTLTISSVQAEDLAVYYCQNDYSYPYTFGGGTKLEIKR ... 6.25e+09
13967 7G3_H1.109_L1.57_Fab_His (Fab, V domains shown, also called XENP13967) VH: QVQLQQSGAEVKKPGASVKVSCKASGYTFTDYYMKWVKQSHGKSLEWMGDIIPSNGATFYNQKFKGKATLTVDRSTSTAYMELSSLRSEDTAVYYCARSHLLRASWFAYWGQGTLVTVSS VL: DFVMTQSPDSLAVSLGERATINCKSSQSLLNTGNQKNYLTWYQQKPGQPPKLLIYWASTRESGVPDRFTGSGSGTDFTLTISSLQAEDVAVYYCQNDYSYPYTFGGGTKLEIKR ... 1.05e+10

Could you now consider this next binder?
Task item: Name the recorded Ka for 13961 7G3_H1.107_L1_Fab_His (Fab, V domains shown, also called XENP13961) VH: QVQLQQSGAEVKKPGASVKVSCKASGYTFTDYYMKWVRQAPGQSLEWMGDIIPSNGATFYNQKFKGKATLTVDRSTSTAYMELSSLRSEDTAVYYCARSHLLRASWFAYWGQGTLVTVSS VL: DFVMTQSPDSLAVSLGERATINCKSSQSLLNSGNQKNYLTWYQQKPGQPPKLLIYWASTRESGVPDRFTGSGSGTDFTLTISSLQAEDVAVYYCQNDYSYPYTFGGGTKLEIKR .
Reply: 6.79e+09

Numbers sourced from patent US20250109215A1.
